Here the recorded OD value is given for each entry.
- Measured Target: T1, human Nectin-4 extracellular antigen hNectin-4-His (human, UniProt Q96NY8 32-349)
- T1 construct: C-terminal 8xHis tag included
- T1 sequence: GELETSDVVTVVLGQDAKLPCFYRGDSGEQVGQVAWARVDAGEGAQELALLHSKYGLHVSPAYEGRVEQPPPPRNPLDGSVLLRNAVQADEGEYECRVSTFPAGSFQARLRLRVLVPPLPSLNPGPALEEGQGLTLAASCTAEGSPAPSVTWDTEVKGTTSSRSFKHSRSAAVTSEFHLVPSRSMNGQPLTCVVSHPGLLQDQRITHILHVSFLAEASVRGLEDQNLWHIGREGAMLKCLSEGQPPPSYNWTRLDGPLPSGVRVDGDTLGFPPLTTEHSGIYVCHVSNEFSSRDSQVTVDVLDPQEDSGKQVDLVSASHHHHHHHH
- Procedure Text: ELISA, phage scFv supernatant 1:50
# number then unit; no other words

Below, 3 binders whose answers are already recorded.
1G8-2G3 scFv (scFv, V domains shown, phage clone supernatant) VH: EVQLVESGGGLVQPGGSLRLSCAASGFIFGGNAMSWVRQAPGKGLEWVSRISSDKGTTNYADSVKGRFTISRDNSKNTLYLQMNSLRAEDTAVYYCARQTEDRSYGYDLDYWGQGTLVTVSS VL: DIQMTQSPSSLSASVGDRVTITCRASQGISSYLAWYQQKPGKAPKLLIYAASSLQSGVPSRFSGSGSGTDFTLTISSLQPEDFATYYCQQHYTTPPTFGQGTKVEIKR    1.58 OD
1G8-1C10 scFv (scFv, V domains shown, phage clone supernatant) VH: EVQLVESGGGLVQPGGSLRLSCAASGFNFSDYSMSWVRQAPGKGLEWVSRIKASSGGSDYADSVKGRFTISRDNSKNTLYLQMNSLRAEDTAVYYCARQTEDRSYGYDLDYWGQGTLVTVSS VL: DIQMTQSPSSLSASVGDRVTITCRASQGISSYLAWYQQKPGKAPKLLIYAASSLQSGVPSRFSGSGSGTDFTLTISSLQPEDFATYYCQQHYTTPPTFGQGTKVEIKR    1.61 OD
1F3-2G10 scFv (scFv, V domains shown, phage clone supernatant) VH: EVQLVESGGGLVQPGGSLRLSCAASGFNFSNYGMSWVRQAPGKGLEWVSRIKPTDGSTHYADSVKGRFTISRDNSKNTLYLQMNSLRAEDTAVYYCARAELLAFDVYTASDYWGQGTLVTVSS VL: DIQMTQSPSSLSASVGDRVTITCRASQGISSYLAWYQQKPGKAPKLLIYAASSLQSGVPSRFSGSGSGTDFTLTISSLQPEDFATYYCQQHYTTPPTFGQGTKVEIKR    1.54 OD

Notebook: 10F4-1F8 scFv (scFv, V domains shown, phage clone supernatant) VH: EVQLVESGGGLVQPGGSLRLSCAASGYTFTDYDMSWVRQAPGKGLEWVSSIITDGGGAFYADSVKGRFTISRDNSKNTLYLQMNSLRAEDTAVYYCAREYSDVVDYVSVRTPLDYWGQGTLVTVSS VL: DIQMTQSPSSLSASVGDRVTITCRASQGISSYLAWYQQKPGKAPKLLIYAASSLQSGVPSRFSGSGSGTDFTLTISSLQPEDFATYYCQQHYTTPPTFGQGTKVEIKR , OD value read as 1.49 OD

Recorded OD value (binder 1F3-2F6 scFv (scFv, V domains shown, phage clone supernatant) VH: EVQLVESGGGLVQPGGSLRLSCAASGFTFSDYGMSWVRQAPGKGLEWVSRISQYGGGIRYADSVKGRFTISRDNSKNTLYLQMNSLRAEDTAVYYCARAELLAFDVYTASDYWGQGTLVTVSS VL: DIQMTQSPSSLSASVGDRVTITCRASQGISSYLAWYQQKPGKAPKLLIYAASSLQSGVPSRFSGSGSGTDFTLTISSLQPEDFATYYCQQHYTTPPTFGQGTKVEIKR ): 1.52 OD
